What follows is literature data on IC50 for Xanthine dehydrogenase/oxidase (Bos taurus, UniProt P80457).
For each record, check the reported IC50: if it is below 2000 nM write rule met, else write rule not met.

1) COC(=O)C1=C(C)Oc2ccc3ccccc3c2C1c1ccc(O)cc1 (stereo not given): rule not met
2) N#Cc1cc(-c2cc(=O)[nH]c(N)n2)ccc1OCc1ccccc1: rule met
3) CC(=O)NC(CC(=O)c1ccc(Cl)cc1)c1ccccc1 (stereo not given): rule not met
4) N#Cc1cc(-c2nccc(O)n2)ccc1OCc1ccccc1F: rule met
5) C[C@H]1O[C@@H](O[C@H]2[C@H](OC[C@]3(C)[C@@H]4CC[C@]5(C)[C@H](CC=C6[C@@H]7C[C@](C)(O)[C@@H](O)C[C@]7(C(=O)O)CC[C@]65C)[C@@]4(C)CC[C@@H]3O)O[C@H](CO)[C@@H](O)[C@@H]2O)[C@H](O)[C@@H](O)[C@@H]1O: rule met
6) Cc1cc(-c2nc(-c3ccc(OCC(C)C)nc3)n[nH]2)ccn1: rule met
7) CC(C)COc1ccc(-c2nc(-c3cccnc3)n[nH]2)cc1[N+](=O)[O-]: rule not met
8) COC(=O)C1=COC(OC(=O)Nc2ccccc2Br)[C@@H]2C(COC(=O)Nc3ccccc3Br)=CC[C@H]12 (stereo not given in full): rule not met

In the record for N#Cc1cn(Cc2ccc(Cl)cc2)c2ccc(-c3noc(=O)[nH]3)cc12 , is IC50 less than 2000 nM? rule not met

In the record for N#Cc1c[nH]c2ccc(-c3noc(=O)[nH]3)cc12 , is IC50 less than 2000 nM? rule not met

In the record for CC(=O)OCC1=CC[C@@H]2C(C(=O)Nc3ccc(C#N)cc3)=CO[C@@H](O[C@@H]3O[C@H](COC(C)=O)[C@@H](OC(C)=O)[C@H](OC(C)=O)[C@H]3OC(C)=O)[C@H]12 , is IC50 less than 2000 nM? rule met

In the record for Cc1ccc(-c2cc(=O)c3ccc4ccccc4c3o2)cc1 , is IC50 less than 2000 nM? rule not met

In the record for COc1ccc(-c2nccc(O)n2)cc1C#N , is IC50 less than 2000 nM? rule met

In the record for Cc1cc(=O)n2nc(COc3ccccc3Cl)sc2n1 , is IC50 less than 2000 nM? rule met

In the record for COc1ccc(/C=C2\Oc3cc(OCC(=O)O)ccc3C2=O)cc1 , is IC50 less than 2000 nM? rule met

In the record for Cc1cc(-c2n[nH]c(-c3ccnc(Cl)c3)n2)ccn1 , is IC50 less than 2000 nM? rule met

In the record for CCNC(=O)OCC1=CC[C@@H]2C(C(=O)OC)=COC(OC(=O)NCC)[C@H]12 (stereo not given in full) , is IC50 less than 2000 nM? rule not met

In the record for Cn1c2ccccc2c2cc(/C=C/C(=O)c3cccc(NC(=O)c4cccc(F)c4)c3)ccc21 , is IC50 less than 2000 nM? rule not met

In the record for O=c1cc(-c2cccc(Br)c2)oc2ccc3ccccc3c12 , is IC50 less than 2000 nM? rule not met

In the record for N#Cc1cn(Cc2ccc(Br)cc2)c2ccc(-c3noc(=O)[nH]3)cc12 , is IC50 less than 2000 nM? rule not met

----------
What follows is literature data on pIC50 for Xanthine dehydrogenase/oxidase (Bos taurus, UniProt P80457).
Remember, pIC50 is on a log scale: it is -log10 of the molar concentration.

Example entries and their recorded answers appear below.
1. CNC(=O)CCc1ccc(O)c2oc(-c3ccc(O)c(O)c3)cc12: 4.94
2. COc1ccc(Nc2ncnc3c2C(c2ccc(O)c(O)c2)C2=C(CCCC2=O)O3)cc1 (stereo unspecified): 5.07
3. CC(C)COc1ccc(NC(=O)c2ccncc2)cc1C#N: 5.80

Using Xanthine dehydrogenase/oxidase (Bos taurus, UniProt P80457) as the test system, report measured pIC50 of CC(=O)NC(CC(=O)c1cccc2ccccc12)c1cccc([N+](=O)[O-])c1 (stereo unspecified) . 4.36

Using Xanthine dehydrogenase/oxidase (Bos taurus, UniProt P80457) as the test system, report measured pIC50 of Cc1cc(-c2n[nH]c(-c3ccc(O)c(C#N)c3)n2)ccn1 . 7.37
